Experiment: Plasma protein binding in mouse plasma at 5 uM after 4 hrs by rapid equilibrium dialysis based LC/MS/MS method
EXPERIMENTAL ENDPOINT: PPB at 4 h, 5 µM

1. C[C@H](Nc1nccc(N2C(=O)OC[C@@H]2CF)n1)c1cn(-c2ccc(C(F)(F)F)cc2)cn1; 0.98
2. C[C@H](Nc1nccc(N2C(=O)OC[C@@H]2[C@H](C)F)n1)c1cn(-c2ccc(C(F)F)cc2)cn1; 0.92

###

Target: Isocitrate dehydrogenase [NADP] cytoplasmic (Homo sapiens, UniProt O75874, R132C)
Sequence (O75874 2-414 R132C limits assumed): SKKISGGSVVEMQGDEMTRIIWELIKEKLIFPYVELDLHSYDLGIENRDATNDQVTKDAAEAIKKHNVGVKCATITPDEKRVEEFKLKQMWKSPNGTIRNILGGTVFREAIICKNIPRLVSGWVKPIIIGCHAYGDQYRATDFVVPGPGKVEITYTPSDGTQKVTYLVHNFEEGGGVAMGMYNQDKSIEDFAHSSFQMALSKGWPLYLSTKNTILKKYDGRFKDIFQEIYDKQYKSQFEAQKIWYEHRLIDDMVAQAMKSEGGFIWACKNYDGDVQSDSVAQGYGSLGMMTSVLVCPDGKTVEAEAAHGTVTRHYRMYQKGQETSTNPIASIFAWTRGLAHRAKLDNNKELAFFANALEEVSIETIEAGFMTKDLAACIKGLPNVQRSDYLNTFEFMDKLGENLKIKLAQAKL
Assay: Inhibition of IDH1 R132C mutant (unknown origin) assessed as NADPH consumption using alpha-ketoglutarate as substrate by fluorescence assay
pIC50: −log10 of the molar value.
EXPERIMENTAL ENDPOINT: pIC50

1. C[C@H](Nc1nccc(N2C(=O)OC[C@@H]2CF)n1)c1cn(-c2ccc(C(F)(F)F)cc2)cn1; 7.35

###

Measured IC50, listed per entry for reference.
Biological target: Isocitrate dehydrogenase [NADP] cytoplasmic (Homo sapiens, UniProt O75874, R132H)
Sequence (O75874 2-414 R132H limits assumed): as the sequence (O75874 2-414 R132C limits assumed) above, with C131H counted along it
Test: Inhibition of IDH1 R132H mutant (unknown origin) expressed in HCT116 cells assessed as reduction in 2-HG levels after 48 hrs by LC-MS/MS analysis
Type: cell-based
EXPERIMENTAL ENDPOINT: IC50 (µM)

1. C[C@H](Nc1ncc(F)c(N2CCOC2=O)n1)c1cn(-c2ccc(Cl)cc2)cn1; 0.5
2. CC(C)[C@H]1COC(=O)N1c1ccnc(N[C@@H](C)c2cn(-c3ccc(Cl)cc3)cn2)n1; 0.015
3. C[C@H](Nc1ncc(F)c(N2C(=O)OC[C@@H]2CF)n1)c1cn(-c2ccc(Cl)cc2)cn1; 0.024
4. C[C@H](Nc1nccc(N2C(=O)OC[C@@H]2CF)n1)c1cn(-c2ccc(C(F)(F)F)cc2)cn1; 0.039
5. C[C@H](Nc1ncc(F)c(N2C(=O)OC[C@@H]2[C@@H](C)F)n1)c1cn(-c2ccc(Cl)cc2)cn1; 0.24
6. C[C@H](Nc1nccc(N2C(=O)OC[C@@H]2CF)n1)c1cn(-c2ccc(Cl)cc2)cn1; 0.03
7. C[C@H](Nc1ncc(F)c(N2C(=O)OC[C@@H]2[C@H](C)F)n1)c1cn(-c2ccc(Cl)cc2)cn1; 0.022
8. CC[C@H]1COC(=O)N1c1nc(N[C@@H](C)c2cn(-c3ccc(Cl)cc3)cn2)ncc1F; 0.013
9. C[C@H](Nc1ncc(F)c(N2C(=O)OC[C@@H]2C)n1)c1cn(-c2ccc(Cl)cc2)cn1; 0.047

###

Test: Solubility of the compound at pH 6.8
Type: physicochemical
Conditions: buffer
EXPERIMENTAL ENDPOINT: solubility (µM)

1. C[C@H](Nc1nccc(N2C(=O)OC[C@@H]2CF)n1)c1cn(-c2ccc(C(F)(F)F)cc2)cn1; 124
2. C[C@H](Nc1nccc(N2C(=O)OC[C@@H]2[C@H](C)F)n1)c1cn(-c2ccc(C(F)F)cc2)cn1; 422

###

Molecular target: Isocitrate dehydrogenase [NADP] cytoplasmic (Homo sapiens, UniProt O75874, R132H)
Experiment: Inhibition of IDH1 R132H mutant (unknown origin) assessed as NADPH consumption using alpha-ketoglutarate as substrate by fluorescence assay
EXPERIMENTAL ENDPOINT: IC50 (nM)

1) C[C@H](Nc1nccc(N2C(=O)OC[C@@H]2CF)n1)c1cn(-c2ccc(C(F)(F)F)cc2)cn1; 21

The reported measurements were obtained from ChEMBL document CHEMBL4196126.
